- Test Details: chemical genetic growth profiling, strain panel (AID 1159580);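 further: tested at 20 µM; growth read once vehicle control cultures reached saturation at 30 °C; 1 = growth at the plate median or of vehicle wells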
- Condition Set: S. cerevisiae deletion strains, growth OD, locus YOL012C, strain htz1
In all, about 5,500 compounds went through this assay and about 2,000 (36%) were called active. Another 18% or so got no clear call; they are omitted. This is one part of the list.
Measured Metric: normalized growth
Give bare numbers.

Study these solved cases before continuing.
{"columns": ["Molecule", "normalized growth"],
 "data": [
  ["CN1CCN(C2=Nc3ccccc3Oc3ccc(Cl)cc32)CC1", 1.28],
  ["C[C@@H]1CC2C3C[C@H](F)C4=CC(=O)C=C[C@]4(C)[C@@]3(F)[C@@H](O)C[C@]2(C)[C@@]1(O)C(=O)COC(=O)C(C)(C)C (stereo partly drawn)", 1.17],
  ["C=C1[C@H]2CC[C@@]3(C)[C@H](c4ccoc4)OC(=O)C[C@]13O[C@H]1C[C@H](O)C(C)(C)[C@H](CC(=O)OC)[C@]12C", 0.768],
  ["CC(CCC(=O)O)[C@H]1CCC2C3CC[C@@H]4CCCC[C@]4(C)C3CC[C@@]21C (stereo partly drawn)", 1.54],
  ["C=C1C2CC[C@@]3(C)[C@H](c4ccoc4)OC(=O)C[C@]13O[C@H]1CC(O)C(C)(C)C(CC(=O)OC)[C@@]21C (stereo partly drawn)", 1.88],
  ["CSc1ccc2c(c1)N(CCC1CCCCN1C)c1ccccc1S2 (stereo not drawn)", 0.211]
]}

Please state normalized growth for every molecule in the list that follows.
1. C[C@H](CCC(=O)O)[C@H]1CCC2C3C(CC[C@@]21C)[C@@]1(C)CC[C@@H](O)C[C@H]1C[C@@H]3O (stereo partly drawn)
2. Nc1ccncc1
3. Nc1cc(-c2ccncc2)c[nH]c1=O
4. CC(CCC(=O)O)[C@H]1CCC2C3C[C@H](O)[C@@H]4C[C@H](O)CC[C@]4(C)C3CC[C@@]21C (stereo partly drawn)

1: 0.86; 2: 1.65; 3: 0.865; 4: 0.914

====

- Test Details: chemical genetic growth profiling, strain panel (AID 1159580)
- Condition Set: S. cerevisiae deletion strains, growth OD, locus YKR026C, strain gcn3, stronger effect = lower value
Out of some 5,500 compounds screened, about 2,000 (36%) were called active. Roughly 18% stayed inconclusive and do not appear here. The list shows a part of the results.
Measured Metric: normalized growth
Answers are plain numbers.

{"columns": ["Compound", "normalized growth"],
 "data": [
  ["O=C(O)c1ccccc1C(=O)Nc1ccc(S(=O)(=O)Nc2nccs2)cc1", 0.981],
  ["CNC(=O)Oc1ccc2c(c1)[C@]1(C)CCN(C)[C@@H]1N2C", 1.02],
  ["CC(=O)OCC(=O)[C@@]1(O)[C@H](OC(C)=O)CC2C3CCC4=CC(=O)C=C[C@]4(C)[C@@]3(F)[C@@H](O)C[C@@]21C (stereo not given in full)", 0.993],
  ["c1ccc2c(c1)CN1CCCC1=N2", 0.992]
]}

Let us move to another entry and its normalized growth.
Report normalized growth for "CCN(CCCc1ccccc1)CCCc1ccccc1" please.
0.983

====

- Test Details: chemical genetic growth profiling, strain panel (AID 1159580)
- Condition Set: S. cerevisiae deletion strains, growth OD, locus YNL298W, strain CLA4, stronger effect = lower value
Out of some 5,500 compounds screened, about 2,000 (36%) were called active. About 18% were inconclusive and are not listed. The list shows a part of the results.
Measured Metric: normalized growth

Study these solved cases before continuing.
{"columns": ["Compound", "Measured Metric", "Result"],
 "data": [
  ["CC(=O)Nc1nnc(S(N)(=O)=O)s1", "normalized growth", "1 (inactive)"],
  ["CC(=O)OCC(=O)[C@@]1(O)[C@H](OC(C)=O)CC2C3CCC4=CC(=O)C=C[C@]4(C)[C@@]3(F)[C@@H](O)C[C@@]21C (some centres not stated)", "normalized growth", "1 (inactive)"],
  ["CN(C)CCOC(=O)COc1ccc(Cl)cc1", "normalized growth", "1.02 (inactive)"]
]}

Please state normalized growth for every compound in the list that follows.
1. NCC(CC(=O)O)c1ccc(Cl)cc1 (configuration not stated)
2. CC(=O)N=c1sc(S(N)(=O)=O)nn1C
3. O=C(O)CCCOc1ccc(Cl)cc1Cl
4. COc1cc2c(cc1/C=C/C(=O)c1cc(OC)c(OC)cc1OC)OCO2
5. CCN(CCCc1ccccc1)CCCc1ccccc1
6. COC(=O)CCCOc1ccc(Cl)cc1Cl
7. C=C[C@H]1CN2CC[C@H]1C[C@@H]2[C@H](O)c1ccnc2ccccc12
8. CC12CC3CC(C)(C1)CC(N)(C3)C2

1. 0.984 (inactive)
2. 1.01 (inactive)
3. 0.976 (inactive)
4. 1.02 (inactive)
5. 1.03 (inactive)
6. 0.985 (inactive)
7. 0.985 (inactive)
8. 1 (inactive)

Please state normalized growth for every compound in the list that follows.
1. COC(=O)c1c(C)cc(OC(=O)c2c(C)c(Cl)c(O)c(C=O)c2O)c(C)c1O
2. CC(=O)O[C@H]1C[C@@H](OC(C)=O)C(C)(C)C2CC(=O)[C@]3(C)C(CC[C@@]4(C)[C@H](c5ccoc5)OC(=O)[C@H]5O[C@]543)[C@]21C (some centres not stated)
3. NS(=O)(=O)c1cc2c(cc1Cl)NC(C1CC3C=CC1C3)NS2(=O)=O (configuration not stated)
4. C[C@@H](N)[C@@H](O)c1ccccc1
5. CN(C)N=Nc1nc[nH]c1C(N)=O
6. COC(=O)c1c(C)cc(OC(=O)c2c(C)cc(O)c(C=O)c2O)c(C)c1O
7. C[C@H](CCC(=O)O)[C@H]1CCC2C3C(CC[C@@]21C)[C@@]1(C)CC[C@@H](O)C[C@H]1C[C@H]3O (some centres not stated)

0.98 (inactive)
1.02 (inactive)
0.988 (inactive)
0.982 (inactive)
0.999 (inactive)
1.01 (inactive)
0.977 (inactive)

====

- Test Details: chemical genetic growth profiling, strain panel (AID 1159580);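 further: tested at 20 µM; growth read once vehicle control cultures reached saturation at 30 °C; 1 = growth at the plate median or of vehicle wells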
- Condition Set: S. cerevisiae deletion strains, growth OD, locus YMR219W, strain ESC1
Screen size: about 5,500 compounds; about 2,000 (36%) were called active. About 18% were inconclusive and are not listed. No stated cut-off is given here; in the data, active means normalized growth mostly below about 0.91 (no sharp cut-off); inconclusive means no clear call, values can overlap the other calls; inactive means mostly above about 0.92. The list shows a part of the results.
# valid calls are TRUE (active), FALSE (inactive); nothing else

Past entries and their recorded results:
{"columns": ["Compound", "Group"],
 "data": [
  ["Cc1nn(Cc2n[nH]c(=S)o2)c(C)c1Br", "FALSE"],
  ["Cc1ccc2cc(NC(=O)c3ccco3)ccc2n1", "FALSE"],
  ["OC1(c2ccc(Cl)cc2)CSc2nc3cc(C(F)(F)F)ccc3n21 (configuration not stated)", "FALSE"]
]}

In the following, a different compound is considered.
Please let me know the test result on file for Cc1ccc2c(c1)N(CCO)C(C)(C)CC2C (configuration not stated) .
FALSE

====

- Test Details: chemical genetic growth profiling, strain panel (AID 1159580);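 further: tested at 20 µM; growth read once vehicle control cultures reached saturation at 30 °C; 1 = growth at the plate median or of vehicle wells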
- Condition Set: S. cerevisiae deletion strains, growth OD, locus YLR370C, strain arc18, stronger effect = lower value
Out of some 5,500 compounds screened, about 2,000 (36%) were called active. Roughly 18% stayed inconclusive and do not appear here. This is one part of the list.
Simple rule here: normalized growth less than 1 is Satisfied, otherwise Not satisfied.

{"columns": ["Compound", "Group"],
 "data": [
  ["O=c1cc(-c2ccccc2)oc2cc(O)c(O)c(O)c12", "Satisfied"],
  ["C[C@@H]1O[C@@H](O[C@H]2C[C@@H](O)[C@]3(CO)C4C(CC[C@]3(O)C2)[C@@]2(O)CC[C@H](C3=CC(=O)OC3)[C@@]2(C)C[C@H]4O)[C@H](O)[C@H](O)[C@H]1O (stereo not given in full)", "Not satisfied"],
  ["O=C(O)CCCOc1ccc(Cl)cc1Cl", "Satisfied"]
]}

In the following, a different compound is considered.
Check if normalized growth falls below 1 for "CN(C)CCOC(=O)COc1ccc(Cl)cc1" .
Satisfied

====

- Test Details: chemical genetic growth profiling, strain panel (AID 1159580);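 further: tested at 20 µM; growth read once vehicle control cultures reached saturation at 30 °C; 1 = growth at the plate median or of vehicle wells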
- Condition Set: S. cerevisiae deletion strains, growth OD, locus YEL003W, strain gim4, stronger effect = lower value
Hit rate of the full screen: of about 5,500 compounds, about 2,000 (36%) were called active. Not shown: some 18% with an inconclusive outcome. The list shows a part of the results.
Measured Metric: normalized growth
Answers are plain numbers.

Study these solved cases before continuing.
{"columns": ["Molecule", "Quantitative Readout"],
 "data": [
  ["N[C@H](Cc1cc(I)c(Oc2ccc(O)c(I)c2)c(I)c1)C(=O)O", 0.998],
  ["CCCCCC1C(=O)CCC1CC(=O)OC (stereo unspecified)", 0.987],
  ["N[C@H](Cc1ccccc1)C(=O)O", 0.983]
]}

Please state normalized growth for every molecule in the list that follows.
1. C=C1C(C2(C)C=CC(=O)C(C)(C)C2CC(=O)OC)CC[C@@]2(C)[C@H](c3ccoc3)OC(=O)C3OC132 (stereo partly specified)
2. CCCCCC1C(=O)CCC1CC(=O)O (stereo unspecified)
3. C/C=C/C(=O)N(CC)c1ccccc1C
4. S=P(N1CC1)(N1CC1)N1CC1
5. Cc1cc(C)cc(OCC2CNC(=O)O2)c1 (stereo unspecified)
6. COc1cc(OC)c(OC)cc1C=O
7. C=C1C2CC[C@@]3(C)[C@H](c4ccoc4)OC(=O)C[C@]13O[C@H]1CC(O)C(C)(C)C(CC(=O)OC)[C@@]21C (stereo partly specified)
8. CN(C(=O)CN(CCO)CC(=O)N(C)C(C)(C)Cc1ccccc1)C(C)(C)Cc1ccccc1

1: 0.983; 2: 0.987; 3: 1.01; 4: 1; 5: 0.981; 6: 0.999; 7: 0.975; 8: 1.01

The reported numbers originate from PubChem BioAssay AID1159580.
